Test system: Escherichia coli TOP10
ASSAY_REMARKS: shrunken log2 fold change of peptide-encoding DNA abundance (4.5 h post-induction vs induction); higher = less antimicrobial activity (less host growth inhibition)
EXPERIMENTAL_SETUP: time post-induction: 4.5 h; library: site-saturation at positions 5, 18, 19, 20
OUTCOME_MEASURE: shrunken log2 fold change
Give bare numbers.

Recorded results for 4 sequences are shown here.
# ENTRY_SEQUENCE, shrunken log2 fold change
rows = [
    ("RRIRIRPPRLPRPRPRPAPRPRP", 0.733),
    ("RRIRCRPPRLPRPRPRPGLYPRP", -0.432),
    ("RRIRNRPPRLPRPRPRPEHMPRP", -0.0791),
    ("RRIRCRPPRLPRPRPRPALDPRP", 0.356),
]

Provide the reported shrunken log2 fold change of each entry below, same order.
1. RRIRPRPPRLPRPRPRPCFIPRP
2. RRIRIRPPRLPRPRPRPDEPPRP
3. RRIRLRPPRLPRPRPRPVEHPRP
4. RRIRNRPPRLPRPRPRPMGDPRP
5. RRIRYRPPRLPRPRPRPHQGPRP

Reply |
1: -0.735; 2: 0.115; 3: -0.174; 4: -0.00663; 5: -0.142

----------
For each record, write down the corresponding shrunken log2 fold change.
Tested on: Escherichia coli TOP10
ASSAY_REMARKS: shrunken log2 fold change of peptide-encoding DNA abundance (4.5 h post-induction vs induction); higher = less antimicrobial activity (less host growth inhibition)
EXPERIMENTAL_SETUP: time post-induction: 4.5 h; library: site-saturation at positions 5, 18, 19, 20

Consider the worked cases shown below.
# ENTRY_SEQUENCE, STUDY_SYSTEM, shrunken log2 fold change
data = [
    ("RRIRRRPPRLPRPRPRPQDRPRP", "Escherichia coli TOP10", 0.0852),
    ("RRIRVRPPRLPRPRPRPYRSPRP", "Escherichia coli TOP10", -1.55),
    ("RRIRTRPPRLPRPRPRPNVHPRP", "Escherichia coli TOP10", -0.637),
    ("RRIRCRPPRLPRPRPRPEQCPRP", "Escherichia coli TOP10", 0.237),
    ("RRIRQRPPRLPRPRPRPMHPPRP", "Escherichia coli TOP10", 0.203),
]

Hi there! I need shrunken log2 fold change for each item below, if you can.
1. RRIRHRPPRLPRPRPRPTMLPRP
2. RRIRDRPPRLPRPRPRPNNIPRP
3. RRIRDRPPRLPRPRPRPITAPRP
4. RRIRYRPPRLPRPRPRPSWLPRP
5. RRIRRRPPRLPRPRPRPVWSPRP

Reply |
1. -0.468
2. -0.558
3. -0.283
4. -0.78
5. -0.103

----------
System: Escherichia coli TOP10;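 further: peptides expressed intracellularly from a pBAD plasmid library in pooled LB shake-flask culture, induced with 0.3% L-arabinose, DNA abundance read by NGS, three biological replicates, DESeq2 with apeglm shrinkage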
ASSAY_REMARKS: shrunken log2 fold change of peptide-encoding DNA abundance (4.5 h post-induction vs induction); higher = less antimicrobial activity (less host growth inhibition)
EXPERIMENTAL_SETUP: time post-induction: 4.5 h; library: site-saturation at positions 5, 18, 19, 20
Please go through the items and note down their shrunken log2 fold change.

List shrunken log2 fold change for every entry below, keeping the order given.
1. RRIRLRPPRLPRPRPRPFCFPRP
2. RRIRNRPPRLPRPRPRPCPEPRP
3. RRIRGRPPRLPRPRPRPLYLPRP

Reply |
1: -0.213; 2: 0.113; 3: -0.221

Respectfully, I request shrunken log2 fold change for each entry included below.
1. RRIRRRPPRLPRPRPRPEQDPRP
2. RRIRRRPPRLPRPRPRPGPLPRP

Reply |
1. 0.727
2. 0.415
